Test system: K562
Assay: cell viability relative to vehicle control; higher = less cytotoxic;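 note: after 48 h exposure read by CellTiter-Glo luminescence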
Conditions: 10 µM; SRSF2 genotype: SRSF2 wt/wt
Where a name gives a salt, the structure may show the parent alone.
measured.metric: cell viability (%)
Number only, in %; omit the unit.

[
  {
    "compound": "CN(C)C/C=C/C(=O)Nc1ccc(C(=O)Nc2cccc(Nc3ncc(Cl)c(-c4c[nH]c5ccccc45)n3)c2)cc1",
    "tested.on": "K562",
    "obs.value": 16.8
  },
  {
    "compound": "Cc1cc(C(=O)Nc2nc3cccc(Cl)c3n2[C@@H]2CCCCN(C(=O)/C=C/CN(C)C)C2)ccn1 [Nazartinib (EGF816, NVS-816)]",
    "tested.on": "K562",
    "obs.value": 69.3
  },
  {
    "compound": "CCCCC(=O)N(Cc1ccc(-c2ccccc2-c2nnn[nH]2)cc1)[C@H](C(=O)O)C(C)C",
    "tested.on": "K562",
    "obs.value": 105
  }
]

Value of measured cell viability for the entry Cc1nc(N(C)C(=O)Cc2ccc(-c3ccccn3)cc2)sc1S(N)(=O)=O : 92.1

Value of measured cell viability for the entry CS(=O)(=O)c1ccc(-c2nnc(/C=C/c3nnc(-c4ccc(C#N)cc4)o3)n2-c2ccccc2Cl)nc1 : 101

Value of measured cell viability for the entry Cc1cc(Cl)ccc1OCCCC(=O)NO : 85.2

Value of measured cell viability for the entry COC(=O)C1=CO[C@@H](O[C@@H]2O[C@H](CO)[C@@H](O)[C@H](O)[C@H]2O)[C@@H]2[C@@]3(C)O[C@H]3[C@@H](O)[C@]12O [Sesamoside] : 104

Value of measured cell viability for the entry CN(C)CCC=C1c2ccccc2CCc2ccccc21 [Amitriptyline HCl] : 88.2

---

Tested on: MOLM14
Assay: cell viability relative to vehicle control; higher = less cytotoxic
Conditions: 10 µM; SRSF2 genotype: SRSF2 wt/wt
Each entry below carries its reported cell viability.
Value and unit, in that order.

[
  {
    "compound": "NC(=O)c1ccc(N(C(N)=O)c2c(F)cccc2F)nc1-c1ccc(F)cc1F",
    "cell viability": "105%"
  }
]

Value of measured cell viability for the entry COc1ccc2c(c1)c(CC(=O)O)c(C)n2C(=O)c1ccc(Cl)cc1 [Indomethacin (Indocid, Indocin)] : 107%

Value of measured cell viability for the entry C1CCN2C[C@@H]3C[C@@H](CN4CCCC[C@@H]34)[C@H]2C1 [Sparteine] : 94.8%

Value of measured cell viability for the entry CCOC(=O)C1=C(N)Oc2ccc(Br)cc2C1C(C#N)C(=O)OCC (stereo not drawn) : 74.9%

Value of measured cell viability for the entry Cc1cc(CS(=O)(=O)c2ccccc2)cc(OCc2ccc(CN3CCC[C@@H]3CO)cc2)c1 : 104%

Value of measured cell viability for the entry CC(C)=CC[C@@H](O)C1=CC(=O)c2c(O)ccc(O)c2C1=O [Shikonin] : 0.28%

---

Each entry below carries its reported cell viability.
System: MOLM14
Assay: cell viability relative to vehicle control; higher = less cytotoxic
Settings: 10 µM; SRSF2 genotype: SRSF2 wt/wt
Where a name gives a salt, the structure may show the parent alone.
Number only, in %; omit the unit.

Observe how each entry below is paired with its result.
[
  {
    "compound": "O=C(Nc1ccc([N+](=O)[O-])cc1O)Nc1ccccc1Br",
    "obs.value": 3.38
  },
  {
    "compound": "CCOc1cc(CC(=O)N[C@@H](CC(C)C)c2ccccc2N2CCCCC2)ccc1C(=O)O [Repaglinide]",
    "obs.value": 101
  },
  {
    "compound": "CC(CCc1ccccc1)NCC(=O)c1ccc(O)c(C(N)=O)c1 (centres undefined) [Labetalone hydrochloride]",
    "obs.value": 104
  },
  {
    "compound": "CNC(=O)c1ccc(C)c(-n2c(C)cc(OCc3ccc(F)cc3F)c(Br)c2=O)c1",
    "obs.value": 78.8
  },
  {
    "compound": "COc1cc(C)c(/C=C/C(C)=C/C=C/C(C)=C/C(=O)O)c(C)c1C",
    "obs.value": 89.2
  },
  {
    "compound": "O=C1NC(=O)C(c2ccccc2[N+](=O)[O-])=C1Nc1ccc(O)c(Cl)c1",
    "obs.value": 107
  }
]

Value of measured cell viability for the entry CN1CCC[C@@H]1CCO[C@](C)(c1ccccc1)c1ccc(Cl)cc1 [Clemastine Fumarate] : 78.4

Value of measured cell viability for the entry O=C(Nc1ccc(S(=O)(=O)Nc2ccccc2Cl)c(Cl)c1)c1ccccn1 : 98.3

Value of measured cell viability for the entry CNC(=O)CN1CCC(Oc2cc3c(Nc4cccc(Cl)c4F)ncnc3cc2OC)CC1 : 93.1
